- System: PC-3 [JPC-3]
- Experiment Notes: relative viability (nuclei count vs DMSO), 5 days (fraction); higher = more cells survive
- Measurement Conditions: first compound 8 µM
Test Readout: relative viability
Numbers only.

Compound | relative viability
O=c1[nH]c2ccccc2n1C1CCN(CCCC(c2ccc(F)cc2)c2ccc(F)cc2)CC1 [Pimozide] + Cc1nc(NC(=O)N2CCC[C@H]2C(N)=O)sc1-c1ccnc(C(C)(C)C(F)(F)F)c1 [Alpelisib] (partner 2 µM) | 0.96
O=c1[nH]c2ccccc2n1C1CCN(CCCC(c2ccc(F)cc2)c2ccc(F)cc2)CC1 [Pimozide] + Nc1nc2[nH]cc(CCc3ccc(C(=O)N[C@@H](CCC(=O)O)C(=O)O)cc3)c2c(=O)[nH]1 [Pemetrexed] (partner 0.2 µM) | 0.985
O=c1[nH]c2ccccc2n1C1CCN(CCCC(c2ccc(F)cc2)c2ccc(F)cc2)CC1 [Pimozide] + O=C(c1cc(Cc2n[nH]c(=O)c3ccccc23)ccc1F)N1CCN(C(=O)C2CC2)CC1 [Olaparib] (partner 8 µM) | 1
O=c1[nH]c2ccccc2n1C1CCN(CCCC(c2ccc(F)cc2)c2ccc(F)cc2)CC1 [Pimozide] + COc1cccc2cc(-c3nc([C@H]4CC[C@H](C(=O)O)CC4)n4ncnc(N)c34)[nH]c12 [OSI-027] (partner 0.5 µM) | 0.685
O=c1[nH]c2ccccc2n1C1CCN(CCCC(c2ccc(F)cc2)c2ccc(F)cc2)CC1 [Pimozide] + CS(=O)(=O)CCNCc1ccc(-c2ccc3ncnc(Nc4ccc(OCc5cccc(F)c5)c(Cl)c4)c3c2)o1 [Lapatinib] (partner 2 µM) | 0.406
O=c1[nH]c2ccccc2n1C1CCN(CCCC(c2ccc(F)cc2)c2ccc(F)cc2)CC1 [Pimozide] + CC(C)C[C@H](NC(=O)[C@H](Cc1ccccc1)NC(=O)c1cnccn1)B(O)O [Bortezomib] (partner 0.002 µM) | 0.667

Q: Checklist item: relative viability tested on PC-3 [JPC-3], entry O=c1[nH]c2ccccc2n1C1CCN(CCCC(c2ccc(F)cc2)c2ccc(F)cc2)CC1 [Pimozide] + N=C(N)NC(=N)NCCc1ccccc1 [Phenformin] (partner 250 µM) , value?
Ans: 0.403

---

For each of the molecules below, state its relative viability.
- System: LK-2
- Experiment Notes: relative viability (nuclei count vs DMSO), 5 days (fraction); higher = more cells survive
- Measurement Conditions: first compound 0.08 µM

Molecule | Test Readout | Measured Value
O=c1[nH]c2ccccc2n1C1CCN(CCCC(c2ccc(F)cc2)c2ccc(F)cc2)CC1 [Pimozide] + CCNC(=O)c1noc(-c2cc(C(C)C)c(O)cc2O)c1-c1ccc(CN2CCOCC2)cc1 [Luminespib] (partner 0.01 µM) | relative viability | 0.18
Cc1cnc(-c2cnc(NCCNc3ccc(C#N)cn3)nc2-c2ccc(Cl)cc2Cl)[nH]1 + COc1cccc2cc(-c3nc([C@H]4CC[C@H](C(=O)O)CC4)n4ncnc(N)c34)[nH]c12 [OSI-027] (partner 0.5 µM) | relative viability | 0.204

List reported relative viability for each of these molecules:
1. O=c1[nH]c2ccccc2n1C1CCN(CCCC(c2ccc(F)cc2)c2ccc(F)cc2)CC1 [Pimozide] + Cc1cc(Nc2cc(N3CCN(C)CC3)nc(Sc3ccc(NC(=O)C4CC4)cc3)n2)n[nH]1 [Tozasertib] (partner 0.1 µM)
2. O=c1[nH]c2ccccc2n1C1CCN(CCCC(c2ccc(F)cc2)c2ccc(F)cc2)CC1 [Pimozide] + CS(=O)(=O)N1CCN(Cc2cc3nc(-c4cccc5[nH]ncc45)nc(N4CCOCC4)c3s2)CC1 [Pictilisib] (partner 1 µM)

Ans:
1: 0.173; 2: 0.556

---

- System: NCI-H1650
- Experiment Notes: relative viability (nuclei count vs DMSO), 5 days (fraction); higher = more cells survive
- Measurement Conditions: first compound 1.265 µM
Test Readout: relative viability
Give bare numbers.

Solved cases (2 shown):
Molecule | relative viability
Cc1sc2c(c1C)C(c1ccc(Cl)cc1)=N[C@@H](CC(=O)OC(C)(C)C)c1nnc(C)n1-2 [JQ1] + Nc1ncn([C@H]2C[C@H](O)[C@@H](CO)O2)c(=O)n1 [Decitabine] (partner 2 µM) | 0.185
Cc1sc2c(c1C)C(c1ccc(Cl)cc1)=N[C@@H](CC(=O)OC(C)(C)C)c1nnc(C)n1-2 [JQ1] + Nc1nc2[nH]cc(CCc3ccc(C(=O)N[C@@H](CCC(=O)O)C(=O)O)cc3)c2c(=O)[nH]1 [Pemetrexed] (partner 0.2 µM) | 0.202

Q: Return reported relative viability; argument: Cc1sc2c(c1C)C(c1ccc(Cl)cc1)=N[C@@H](CC(=O)OC(C)(C)C)c1nnc(C)n1-2 [JQ1] + CC(=O)c1c(C)c2cnc(Nc3ccc(N4CCNCC4)cn3)nc2n(C2CCCC2)c1=O [Palbociclib] (partner 0.5 µM)
Ans: 0.111

---

- Test system: NCI-H1563
- Experiment Notes: relative viability (nuclei count vs DMSO), 5 days (fraction); higher = more cells survive
- Measurement Conditions: first compound 0.253 µM
Mark yes (1) for relative viability under 0.8, no (0) if at or over.

# example entries with known answers
Molecule | Class Name
O=c1[nH]c2ccccc2n1C1CCN(CCCC(c2ccc(F)cc2)c2ccc(F)cc2)CC1 [Pimozide] + Nc1nc2[nH]cc(CCc3ccc(C(=O)N[C@@H](CCC(=O)O)C(=O)O)cc3)c2c(=O)[nH]1 [Pemetrexed] (partner 0.2 µM) | no (0)
O=c1[nH]c2ccccc2n1C1CCN(CCCC(c2ccc(F)cc2)c2ccc(F)cc2)CC1 [Pimozide] + C[C@@H](Oc1cc(-c2cnn(C3CCNCC3)c2)cnc1N)c1c(Cl)ccc(F)c1Cl [Crizotinib] (partner 1 µM) | no (0)
Cc1cnc(-c2cnc(NCCNc3ccc(C#N)cn3)nc2-c2ccc(Cl)cc2Cl)[nH]1 + C[C@]1(O)C[C@@H](c2nc(-c3ccc4ccc(-c5ccccc5)nc4c3)c3c(N)nccn32)C1 [Linsitinib] (partner 1 µM) | no (0)
O=c1[nH]c2ccccc2n1C1CCN(CCCC(c2ccc(F)cc2)c2ccc(F)cc2)CC1 [Pimozide] + Cc1nc(Nc2ncc(C(=O)Nc3c(C)cccc3Cl)s2)cc(N2CCN(CCO)CC2)n1 [Dasatinib] (partner 0.075 µM) | yes (1)

Q: Quick check: relative viability of O=c1[nH]c2ccccc2n1C1CCN(CCCC(c2ccc(F)cc2)c2ccc(F)cc2)CC1 [Pimozide] + CCNC(=O)c1noc(-c2cc(C(C)C)c(O)cc2O)c1-c1ccc(CN2CCOCC2)cc1 [Luminespib] (partner 0.01 µM) under 0.8?
Ans: yes (1)

---

- Tested on: BEN
- Experiment Notes: relative viability (nuclei count vs DMSO), 5 days (fraction); higher = more cells survive
- Measurement Conditions: first compound 0.253 µM
Test Readout: relative viability
Give bare numbers.

Compound | Tested System | relative viability
Cc1cnc(-c2cnc(NCCNc3ccc(C#N)cn3)nc2-c2ccc(Cl)cc2Cl)[nH]1 + COc1cccc2cc(-c3nc([C@H]4CC[C@H](C(=O)O)CC4)n4ncnc(N)c34)[nH]c12 [OSI-027] (partner 0.5 µM) | BEN | 0.307

List reported relative viability for each of these compounds:
1. Cc1cnc(-c2cnc(NCCNc3ccc(C#N)cn3)nc2-c2ccc(Cl)cc2Cl)[nH]1 + CC(=O)Nc1cccc(-n2c(=O)n(C3CC3)c(=O)c3c(Nc4ccc(I)cc4F)n(C)c(=O)c(C)c32)c1 [Trametinib] (partner 0.02 µM)
2. O=c1[nH]c2ccccc2n1C1CCN(CCCC(c2ccc(F)cc2)c2ccc(F)cc2)CC1 [Pimozide] + Cc1cc(Nc2cc(N3CCN(C)CC3)nc(Sc3ccc(NC(=O)C4CC4)cc3)n2)n[nH]1 [Tozasertib] (partner 0.1 µM)
3. O=c1[nH]c2ccccc2n1C1CCN(CCCC(c2ccc(F)cc2)c2ccc(F)cc2)CC1 [Pimozide] + O=C(CCCCCCC(=O)Nc1ccccc1)NO [Vorinostat] (partner 1 µM)
4. Cc1cnc(-c2cnc(NCCNc3ccc(C#N)cn3)nc2-c2ccc(Cl)cc2Cl)[nH]1 + CS(=O)(=O)CCNCc1ccc(-c2ccc3ncnc(Nc4ccc(OCc5cccc(F)c5)c(Cl)c4)c3c2)o1 [Lapatinib] (partner 2 µM)

Ans:
1. 0.879
2. 0.548
3. 0.579
4. 0.686

---

- Tested on: CAL-12T
- Experiment Notes: relative viability (nuclei count vs DMSO), 5 days (fraction); higher = more cells survive
- Measurement Conditions: first compound 15.81 µM
Test Readout: relative viability

Solved cases (4 shown):
Compound | relative viability
O=C(O)CCCCC(CCSCc1ccccc1)SCc1ccccc1 (stereo not given) [CPI-613] + CC1(C)CCC(c2ccc(Cl)cc2)=C(CN2CCN(c3ccc(C(=O)NS(=O)(=O)c4ccc(N[C@H](CCN5CCOCC5)CSc5ccccc5)c(S(=O)(=O)C(F)(F)F)c4)cc3)CC2)C1 [Navitoclax] (partner 0.5 µM) | 0.967
O=C(O)CCCCC(CCSCc1ccccc1)SCc1ccccc1 (stereo not given) [CPI-613] + O=C(c1cc(Cc2n[nH]c(=O)c3ccccc23)ccc1F)N1CCN(C(=O)C2CC2)CC1 [Olaparib] (partner 8 µM) | 0.634
O=C(O)CCCCC(CCSCc1ccccc1)SCc1ccccc1 (stereo not given) [CPI-613] + CC(=O)Nc1cccc(-n2c(=O)n(C3CC3)c(=O)c3c(Nc4ccc(I)cc4F)n(C)c(=O)c(C)c32)c1 [Trametinib] (partner 0.02 µM) | 0.309
O=C(O)CCCCC(CCSCc1ccccc1)SCc1ccccc1 (stereo not given) [CPI-613] + NC(=O)Nc1cc(-c2cccc(F)c2)sc1C(=O)N[C@H]1CCCNC1 [AZD7762] (partner 0.2 µM) | 0.457

Now look at this entry.
Q: Checklist item: relative viability tested on CAL-12T, entry O=C(O)CCCCC(CCSCc1ccccc1)SCc1ccccc1 (stereo not given) [CPI-613] + C[C@]1(O)C[C@@H](c2nc(-c3ccc4ccc(-c5ccccc5)nc4c3)c3c(N)nccn32)C1 [Linsitinib] (partner 1 µM) , value?
Ans: 0.634

Measured values drawn from the supplement of paper PMC10307832 for this set.
